assayed-target: GSK3α (GST-full length GSK3α) (Homo sapiens (Human))
Sequence (P49840 whole entry): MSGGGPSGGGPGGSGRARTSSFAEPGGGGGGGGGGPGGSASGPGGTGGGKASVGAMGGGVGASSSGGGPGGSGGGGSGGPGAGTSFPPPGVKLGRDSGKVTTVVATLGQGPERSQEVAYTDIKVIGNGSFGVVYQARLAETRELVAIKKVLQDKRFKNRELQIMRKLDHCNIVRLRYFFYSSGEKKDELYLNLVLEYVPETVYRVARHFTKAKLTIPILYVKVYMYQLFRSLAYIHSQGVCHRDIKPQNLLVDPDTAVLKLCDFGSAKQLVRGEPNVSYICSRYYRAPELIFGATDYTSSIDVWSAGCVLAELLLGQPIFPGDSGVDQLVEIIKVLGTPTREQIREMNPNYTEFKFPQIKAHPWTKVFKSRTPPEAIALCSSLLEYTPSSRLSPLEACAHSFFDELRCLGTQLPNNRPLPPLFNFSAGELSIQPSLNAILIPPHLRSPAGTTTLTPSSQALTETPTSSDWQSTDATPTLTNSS
run-description: GSK3α TR-FRET kinase assay
Type: biochemical
run-conditions: read-out: GSK3-A (TR-FRET 1 mM ATP); GMean; IC50; 1 mM ATP; geometric mean
attribute-measured: IC50

input: Suppose we examine the compound CCC1(c2cccc(-c3c(Cl)cncc3Cl)c2)C2=C(CC(C)(C)NC2=O)Nc2n[nH]cc21 (centres unmarked) [Compound 948515] ; what IC50 value has been reported?
output: ≤ 100 nM

input: Try the compound CC[C@]1(c2cccc(N3CCCCC3)c2)C2=C(CC(C)(C)CC2=O)Nc2n[nH]c(C(F)(F)F)c21 [Compound 816800]
output: ≤ 100 nM

input: Try the compound CC[C@]1(c2cccc(-c3ccncc3F)c2)C2=C(CC(C)(C)NC2=O)Nc2n[nH]c(C(F)F)c21 [Compound 951612]
output: 100 to 1000 nM

input: Try the compound CCC1(c2cccc(C(F)(F)F)c2)C2=C(CC(C)N(c3cnc(OC)nc3)C2=O)Nc2n[nH]cc21 (centres unmarked) [Compound 949352]
output: 100 to 1000 nM

input: Try the compound CC(C)(C)Cc1[nH]nc2c1C(C)(c1cccc(S(C)(=O)=O)c1)C1=C(CC(C)(C)CC1=O)N2 (centres unmarked) [Compound 114687]
output: 100 to 1000 nM

input: Try the compound CC(C)(C)Cc1[nH]nc2c1C(C)(c1cccc(S(=O)(=O)C(F)(F)F)c1)C1=C(CC(C)(C)CC1=O)N2 (centres unmarked) [Compound 126395]
output: 1000 to 5000 nM

input: Try the compound CC(C)(C)Cc1[nH]nc2c1C(C)(c1cccc(S(=O)(=O)N3CCCC3)c1)C1=C(CC(C)(C)NC1=O)N2 (centres unmarked) [Compound 108791]
output: 1000 to 5000 nM

input: Try the compound CCC1(c2cccc(-c3c(F)cncc3OC)c2)C2=C(Nc3n[nH]cc31)C(F)C(C)(C)CC2=O (centres unmarked) [Compound 948545]
output: ≤ 100 nM

input: Try the compound CC[C@@]1(c2cccc(C3CCC3)c2)C2=C(CC(C)(C)CC2=O)Nc2n[nH]cc21 [Compound 949521]
output: 100 to 1000 nM

input: Try the compound CC[C@@]1(c2cccc(-c3ccnn3C)c2)C2=C(CC(C)(C)CC2=O)Nc2n[nH]c(C(F)(F)F)c21 [Compound 947372]
output: ≤ 100 nM

input: Try the compound CC[C@]1(c2cccc([C@H](C)c3ncccn3)c2)C2=C(CC(C)(C)CC2=O)Nc2n[nH]cc21 [Compound 948060]
output: 100 to 1000 nM

input: Try the compound CCC1(c2cccc(-c3cc(OC)ncc3F)c2)C2=C(CC(C)(C)CC2=O)Nc2n[nH]cc21 (centres unmarked) [Compound 944032]
output: 100 to 1000 nM

input: Try the compound CC[C@]1(c2cccc(-c3ccncc3F)c2)C2=C(CC(C)(C)CC2=O)Nc2n[nH]c(C(F)(F)F)c21 [Compound 947326]
output: ≤ 100 nM

input: Try the compound CCC1(c2cccc(-c3ccnc(C)c3)c2)C2=C(CC(C)(C)CC2=O)Nc2n[nH]c(C)c21 (centres unmarked) [Compound 913018]
output: 100 to 1000 nM

Just for reference, patent US20250313563A1 is where these values come from.
